system: HCoV-OC43; assay: OC43 virion RNA, Branched DNA assay, infected HCT8 cells; format: cell-based, human coronavirus OC43; details: 10 nM siRNA, HCT8 cells
Classify: criterion met when OC43 vRNA reduction is strictly less than 80%; criterion not met when OC43 vRNA reduction is not.

SUBSTANCE	GROUP_LABEL
37 (CUGAAUGGAAAAAACAUUGAAUUUUCAAUGUUUUUUCCAUUCAGUU; siRNA; Self-complementary hairpin strand, chemistry not given here, further chemistry not given here; listed as Homo sapiens) [compound 37]	criterion not met
22 (CAUCUACGUGGGUAACUUAUUUAAGUUACCCACGUAGAUGUU; siRNA; Self-complementary hairpin strand, chemistry not given here, further chemistry not given here; listed as Homo sapiens) [compound 22]	criterion met
42 (CCCAGCGCCAAGGACAUCAAGUUCUUGAUGUCCUUGGCGCUGGGUU; siRNA; Self-complementary hairpin strand, chemistry not given here, further chemistry not given here; listed as Homo sapiens) [compound 42]	criterion met
32 (AGAAGAAAGUGGAAGCAAAGAUUUCUUUGCUUCCACUUUCUUCUUU; siRNA; Self-complementary hairpin strand, chemistry not given here, further chemistry not given here; listed as Homo sapiens) [compound 32]	criterion not met
41 (AUGGGAUUUGGCCUUUUUGAUUUAUCAAAAAGGCCAAAUCCCAUUU; siRNA; Self-complementary hairpin strand, chemistry not given here, further chemistry not given here; listed as Homo sapiens) [compound 41]	criterion not met
21 (CUGUUACAAUCAAGGUCUATTUAGACCUUGAUUGUAACAGTT; siRNA; Self-complementary hairpin strand, chemistry not given here, further chemistry not given here; listed as Homo sapiens) [compound 21]	criterion not met
29 (UGUCUCCGAGCUCGCCUGCAUUUAUGCAGGCGAGCUCGGAGACAUU; siRNA; Self-complementary hairpin strand, chemistry not given here, further chemistry not given here; listed as Homo sapiens) [compound 29]	criterion not met
40 (AGUCUGAAGAGUCAGAUGAUGUUCAUCAUCUGACUCUUCAGACUUU; siRNA; Self-complementary hairpin strand, chemistry not given here, further chemistry not given here; listed as Homo sapiens) [compound 40]	criterion not met
39 (AGAGGAGAAGAAAGAUGAGAAUUUUCUCAUCUUUCUUCUCCUCUUU; siRNA; Self-complementary hairpin strand, chemistry not given here, further chemistry not given here; listed as Homo sapiens) [compound 39]	criterion not met
35 (GGGAUUUGGCCUUUUUGAUUATTAUCAAAAAGGCCAAAUCCCAUTT; siRNA; Self-complementary hairpin strand, chemistry not given here, further chemistry not given here; listed as Homo sapiens) [compound 35]	criterion not met
38 (AGUGUACCUGCUGGUGGGGCUUUAGCCCCACCAGCAGGUACACUUU; siRNA; Self-complementary hairpin strand, chemistry not given here, further chemistry not given here; listed as Homo sapiens) [compound 38]	criterion met
34 (GCUGAAUGGAAAAAACAUUGATTAAUGUUUUUUCCAUUCAGCUCTT; siRNA; Self-complementary hairpin strand, chemistry not given here, further chemistry not given here; listed as Homo sapiens) [compound 34]	criterion not met

====

tested on: HBeAg; conditions: 10 nM siRNA transfected into cells
MEASURED_QUANTITY: HBeAg reduction HepG2.2.15 cells (%)

SUBSTANCE	QUANTITATIVE_READOUT
45 (GGAAAAAACAUUGAAGACGUCUUGACGUCUUCAAUGUUUUUUCCUU; siRNA; Self-complementary hairpin strand, chemistry not given here, further chemistry not given here; listed as Homo sapiens) [compound 45]	42
27 (GGUCUUUUUGACUAAACCUCUTTAGGUUUAGUCAAAAAGACCAATT; siRNA; Self-complementary hairpin strand, chemistry not given here, further chemistry not given here; listed as Homo sapiens) [compound 27]	55
32 (AGAAGAAAGUGGAAGCAAAGAUUUCUUUGCUUCCACUUUCUUCUUU; siRNA; Self-complementary hairpin strand, chemistry not given here, further chemistry not given here; listed as Homo sapiens) [compound 32]	32
44 (UGAGCUGAAUGGAAAAAACAUUUAUGUUUUUUCCAUUCAGCUCAUU; siRNA; Self-complementary hairpin strand, chemistry not given here, further chemistry not given here; listed as Homo sapiens) [compound 44]	30
